# Tested system: UniProt Q1CXM2
# Sequence (Q1CXM2 1-671): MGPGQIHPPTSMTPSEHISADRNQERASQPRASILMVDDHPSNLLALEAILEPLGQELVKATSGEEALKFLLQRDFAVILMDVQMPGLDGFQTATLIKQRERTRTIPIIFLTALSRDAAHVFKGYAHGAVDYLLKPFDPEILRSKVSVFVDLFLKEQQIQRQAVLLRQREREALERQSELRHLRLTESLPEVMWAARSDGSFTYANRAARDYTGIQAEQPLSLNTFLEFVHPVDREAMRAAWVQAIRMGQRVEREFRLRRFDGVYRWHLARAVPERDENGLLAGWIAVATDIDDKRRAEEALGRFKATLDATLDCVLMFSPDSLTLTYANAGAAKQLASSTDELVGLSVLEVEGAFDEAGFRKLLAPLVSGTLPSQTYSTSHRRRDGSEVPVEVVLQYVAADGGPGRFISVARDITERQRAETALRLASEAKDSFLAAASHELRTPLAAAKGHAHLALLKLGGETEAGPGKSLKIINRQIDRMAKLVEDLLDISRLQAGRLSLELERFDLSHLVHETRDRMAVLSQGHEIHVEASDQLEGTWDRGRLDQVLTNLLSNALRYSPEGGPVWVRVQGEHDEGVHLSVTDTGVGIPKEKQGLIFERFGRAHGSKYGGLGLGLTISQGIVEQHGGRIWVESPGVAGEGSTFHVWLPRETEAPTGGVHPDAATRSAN
pKd: −log10 of the molar value.

# Compound, pKd
data = [
    ("CCC1OC(/C(C)=C/C(C)/C=C/C2C(C)C2/C=C/C2OC(CC(=O)O)CC(N(C)C)C2O)CC=C1C (stereo not shown)", 3.52),
]
